I'd appreciate it if you could supply IC50 values for the items below.
Tested on: HT-29 (human colorectal adenocarcinoma)
Test: SRB cytotoxicity assay, HT-29 cells
Assay type: cell-based
Conditions: Homo sapiens, HT-29, 72 h, read-out: IC50 HT-29

Quick batch: IC50 for everything below.
1. CC1(C)C2CC[C@@]1(C)C(=O)/C2=C/c1ccoc1
2. CC12CCC(CC1=O)C2(C)C (centres unmarked) [Compound 1, camphor, reference compound]
3. CC1(C)C2CC[C@]1(C)C(=O)/C2=C/c1ccoc1
4. COc1cccc2c1C(=O)c1c(O)c3c(c(O)c1C2=O)C[C@@](O)(C(C)=O)C[C@@H]3O[C@H]1C[C@H](N)[C@H](O)[C@H](C)O1 [Daunorubicin, reference compound]
5. O=c1[nH]cc(F)c(=O)[nH]1 [Compound 5-FU, 5-fluorouracil, reference compound]

1: > 100 µM; 2: > 100 µM; 3: > 100 µM; 4: 15.1 µM; 5: 2.9 µM

Batch request: IC50 for each of the following compounds.
1. CC1(C)C2CC[C@@]1(C)C(=O)/C2=C/c1ccco1
2. CC1(C)C2CC[C@@]1(C)C(=O)/C2=C/c1cccs1

1. > 100 µM
2. > 100 µM

Okay, here is my list. What is IC50 for each of these?
1. CC1(C)C2CC[C@]1(C)C(=O)/C2=C/c1ccco1
2. CC1(C)C2CC[C@]1(C)C(=O)/C2=C/c1cc2ccccc2o1
3. CC1(C)C2CC[C@@]1(C)C(=O)/C2=C/c1cc2ccccc2o1
4. CC1(C)C2CC[C@]1(C)C(=O)/C2=C/c1cccs1

1: > 100 µM; 2: 76.3 µM; 3: > 100 µM; 4: 87.5 µM
